Source of measurements: patent US20100331357A1

Protocol Notes: Solubility by eye observation with stepwise addition of solution
Format: physicochemical
Details: citric acid buffer solution, pH 5, aqueous buffer, thermodynamic from solid, 100 mM Citric acid buffer solution pH 5
Endpoint Label: solubility

Problem: solubility for CCS(=O)(=O)c1cccc(-c2cc(C(=O)NC3CCN(C)CC3)c(C)c3[nH]c4ncc(C)cc4c23)c1.Cl [compound A1 hydrochloride] ?
Result: < 1300 µg/mL

====

Protocol Notes: Solubility by eye observation with stepwise addition of solution
Assay type: physicochemical
Details: 5 w/v % D-mannitol in water for injection, saline or isotonic, thermodynamic from solid
Description: Each of the solutions (0.1 mL) shown in Table 1 was added to compound A1 hydrochloride (about 2 mg), and solubility was confirmed with eye observation. […] The concentration of the compound A1 hydrochloride determined from the total amount of the solution added up to the time point at which insoluble materials were not recognized, was taken as the solubility. […]
Endpoint Label: solubility

Problem: solubility for CCS(=O)(=O)c1cccc(-c2cc(C(=O)NC3CCN(C)CC3)c(C)c3[nH]c4ncc(C)cc4c23)c1.Cl [compound A1 hydrochloride] ?
Result: ~1100 µg/mL

====

Protocol Notes: Solubility by eye observation with stepwise addition of solution
Assay type: physicochemical
Details: 10 w/v % maltose in water for injection, saline or isotonic, thermodynamic from solid
Endpoint Label: solubility

Problem: solubility for CCS(=O)(=O)c1cccc(-c2cc(C(=O)NC3CCN(C)CC3)c(C)c3[nH]c4ncc(C)cc4c23)c1.Cl [compound A1 hydrochloride] ?
Result: ~1400 µg/mL
